src = PubChem BioAssay (EPA / NIEHS)

- target.under.test: Luciferin 4-monooxygenase (Photinus pyralis)
- test.details: CCTE_Simmons_QuantiLum_inhib_2: CCTE's Firefly Luciferase Inhibition Assay, Simmons Lab (AID 2283767)
Records with an inconclusive call do not appear. Calls of active or inactive are those of the source. Rule for the calls: active = hit-call score of the fitted dose curve at least 0.9, where 1 is the maximum; inconclusive = response in the unintended direction; inactive = score below 0.9.
Your reply should match one of these outcome classes. T (active), F (inactive)

What call does the record list for CCOP(=S)(OCC)SCSCC ?
F

Which outcome was entered for the molecule Cc1ccc(N)cc1N in this test?
T

Identify the outcome logged in this assay for the molecule shown: O=S(=O)(c1ccc(O)cc1)c1ccc(O)cc1
F

Status in this test for c1ccc(OP(Oc2ccccc2)Oc2ccccc2)cc1 ?
F

I'd appreciate the recorded outcome for Nc1ccc2ccccc2c1 from this test.
T

Entry CCC1(c2ccccc2)C(=O)N=C(O)NC1=O (stereo not given) : call = ?
F

Test call for this molecule, please: [N-]=[N+]=[N-]
F

Outcome? CCCCCCCc1ccc(O)cc1
T

Can you look up the reported call for O=S1(=O)OCC2C(CO1)C1(Cl)C(Cl)=C(Cl)C2(Cl)C1(Cl)Cl (stereo not given) for me?
T

Tell me the assay call for Cc1cccc(N)c1 please.
F

# fetch the recorded call for CCC(C)(C)c1ccc(O)cc1 here
F

Dear all, I need the recorded test outcome for Nc1cc2c3c(c1)C(c1ccccc1)=N[C@@H](NC(=O)c1cccnc1)C(=O)N3CC2 , thank you.
F

Each molecule tested received a call. Report the one for c1ccc2c(c1)Nc1ccccc1S2 .
F

Hey, what did the test say about CCCCc1ccc(O)cc1 ?
F

Hi, do you know how Nc1ccc(Cl)cc1 came out in this test?
F
